System: HeLa cells
protocol_description: [3H]Adenosine uptake functional cellular assay
Format: cell-based
experimental_context: Homo sapiens, HeLa, accumulation of [3H]adenosine into HeLa cells; compound range 10 μM to […]; read-out: Adenosine uptake inhibition IC50
Procedure: Compounds are also screened in an adenosine uptake functional cellular assay using the protocol described below. The adenosine uptake inhibition assay may be used to identify compounds with the potential for a negative cardiovascular side effect. Adenosine uptake activity was determined by monitoring the accumulation of tritiated adenosine into HeLa cells (ATCC catalog # CCL-2) using a PMT-based radiometric detection instrument. […]
endpoint: pIC50
Units for pIC50: none; it is -log10 of a concentration expressed in mol/L.

Worked examples, 5 molecules total:
Cc1cnc(NC(=O)c2ccc(-c3nc([C@@H]4CC[C@H]5CCC(=O)N5C4)n4ccnc(N)c34)cc2)s1 [Example 8] = 6.45
Nc1nccn2c([C@@H]3CC[C@H]4CCC(=O)N4C3)nc(-c3ccc(C(=O)Nc4cc(C(F)(F)F)[nH]n4)cc3)c12 [Example 170] = 5.17
Nc1nccn2c([C@@H]3CC[C@H]4CCCC(=O)N4C3)nc(-c3ccc(C(=O)Nc4cc(C(F)(F)F)ccn4)cc3F)c12 [Example 45] = 6.64
CCOc1cc(C(=O)Nc2cc(C3CC3)ccn2)c(F)cc1-c1nc([C@@H]2CC[C@H]3CCC(=O)N3C2)n2c(Cl)cnc(N)c12 [Example 136] = 5.84
Nc1nccn2c([C@@H]3CC[C@H]4CCC(=O)N4C3)nc(-c3ccc(C(=O)Nc4cc(C5CC5)ccn4)cc3OC3CC3)c12 [Example 148] = 5.97

# ---- query molecule ----
Which pIC50 is reported for this molecule? Nc1ncc(Cl)n2c([C@@H]3CC[C@H]4CCC(=O)N4C3)nc(-c3ccc(C(=O)Nc4cc(C(F)(F)F)ccn4)cc3Cl)c12 [Example 194]
6.65

----------
Parameter IC50: see the listing below.
Tested on: HeLa cells
protocol_description: [3H]Adenosine uptake functional cellular assay
Format: cell-based
experimental_context: Homo sapiens, HeLa, accumulation of [3H]adenosine into HeLa cells; compound range 10 μM to […]; read-out: Adenosine uptake inhibition IC50

Worked examples, 3 compounds total:
Nc1ncc(Cl)n2c([C@@H]3CC[C@H]4CCC(=O)N4C3)nc(-c3ccc(C(=O)Nc4cc(C(F)(F)F)ccn4)cc3)c12 = 0.501 µM
Nc1nccn2c([C@@H]3CC[C@H]4CCC(=O)N4C3)nc(-c3ccc(C(=O)Nc4cc(C(F)(F)F)ccn4)cc3OC3CCC3)c12 = 0.756 µM
N#C/N=C1\CC[C@@H]2CC[C@@H](c3nc(-c4ccc(C(=O)Nc5cc(C(F)(F)F)ccn5)cc4)c4c(N)nccn34)CN12 = 0.132 µM

# value lookup — system HeLa cells, readout IC50, item Nc1nccn2c([C@@H]3CC[C@@H]4CCC(=O)N4C3)nc(-c3ccc(C(=O)Nc4cc(C(F)(F)F)ccn4)cc3)c12
0.511 µM

And then Nc1nccn2c([C@@H]3CC[C@H]4CCC(=O)N4C3)nc(-c3ccc(C(=O)Nc4ccccn4)cc3)c12 , what is it?
0.184 µM

And then COc1cc(C(=O)Nc2cc(C(F)(F)F)n(C)n2)ccc1-c1nc([C@@H]2CC[C@H]3CCC(=O)N3C2)n2c(Cl)cnc(N)c12 , what is it?
1.55 µM

And then Nc1nccn2c([C@@H]3CC[C@H]4CCC(=O)N4C3)nc(-c3ccc(C(=O)Nc4cc(C(F)(F)F)cnn4)cc3)c12 , what is it?
0.303 µM

And then COc1cc(C(=O)Nc2cc(C(F)(F)F)ccn2)cc(F)c1-c1nc([C@@H]2CC[C@H]3CCC(=O)N3C2)n2c(F)cnc(N)c12 , what is it?
1.52 µM

And then Nc1nccn2c([C@H]3CC[C@@H]4C[C@@H](O)C(=O)N4C3)nc(-c3ccc(C(=O)Nc4cc(C(F)(F)F)ccn4)cc3)c12 , what is it?
0.41 µM

And then Nc1nccn2c([C@@H]3CC[C@H]4CCC(=O)N4C3)nc(-c3ccc(C(=O)Nc4cc(C(F)(F)F)ccn4)c(F)c3)c12 , what is it?
0.067 µM

And then COc1cc(C(=O)Nc2cc(C(F)(F)F)ccn2)ccc1-c1nc([C@H]2CC[C@@H]3CC(C)(C)C(=O)N3C2)n2ccnc(N)c12 , what is it?
0.487 µM

And then COc1cc(C(=O)Nc2cc(C3CCC3)ccn2)ccc1-c1nc([C@@H]2CC[C@H]3CCC(=O)N3C2)n2c(Cl)cnc(N)c12 , what is it?
0.582 µM

And then CCc1ccnc(NC(=O)c2ccc(-c3nc([C@@H]4CC[C@H]5CCC(=O)N5C4)n4c(Cl)cnc(N)c34)c(OC)c2)c1 , what is it?
0.377 µM

And then Cn1nc(NC(=O)c2ccc(-c3nc([C@@H]4CC[C@H]5CCC(=O)N5C4)n4c(Cl)cnc(N)c34)c(Cl)c2)cc1C(F)(F)F , what is it?
0.995 µM

And then COc1cc(C(=O)Nc2cc(C(F)(F)F)ccn2)ccc1-c1nc([C@@H]2CC[C@@H]3N(C2)C(=O)OC3(C)C)n2ccnc(N)c12 , what is it?
0.373 µM

And then Nc1nccn2c([C@H]3CC[C@H]4C[C@@H](O)C(=O)N4C3)nc(-c3ccc(C(=O)Nc4cc(C(F)(F)F)ccn4)cc3)c12 , what is it?
0.973 µM

And then NC(=O)c1cc(C(=O)Nc2cc(C(F)(F)F)ccn2)ccc1-c1nc([C@@H]2CC[C@H]3CCC(=O)N3C2)n2ccnc(N)c12 , what is it?
≥ 10 µM

And then CCN1CC(=O)N2C[C@H](c3nc(-c4ccc(C(=O)Nc5cc(C(F)(F)F)ccn5)cc4)c4c(N)nccn34)CC[C@H]2C1 , what is it?
0.0825 µM

And then CCOCCOc1cc(C(=O)Nc2cc(C(F)(F)F)ccn2)ccc1-c1nc([C@@H]2CC[C@H]3CCC(=O)N3C2)n2ccnc(N)c12 , what is it?
5.89 µM

And then COc1cc(C(=O)Nc2cc(C(F)(F)F)ccn2)c(F)cc1-c1nc([C@@H]2CC[C@H]3CCC(=O)N3C2)n2c(Cl)cnc(N)c12 , what is it?
1.49 µM
